- system.under.test: Beta-lactamase (Escherichia coli (strain K12)) (UniProt P00811)
- Sequence (P00811 whole entry, looked up): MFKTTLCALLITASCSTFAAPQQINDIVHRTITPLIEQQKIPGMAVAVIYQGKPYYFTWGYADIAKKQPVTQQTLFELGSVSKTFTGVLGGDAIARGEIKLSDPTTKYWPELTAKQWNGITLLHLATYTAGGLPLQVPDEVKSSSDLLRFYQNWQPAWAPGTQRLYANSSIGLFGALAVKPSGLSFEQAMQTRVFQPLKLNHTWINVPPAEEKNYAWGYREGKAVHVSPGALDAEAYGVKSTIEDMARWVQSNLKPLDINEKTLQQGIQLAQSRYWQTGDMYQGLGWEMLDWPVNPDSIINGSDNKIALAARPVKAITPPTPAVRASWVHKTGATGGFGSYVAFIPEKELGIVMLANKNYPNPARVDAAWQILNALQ
- assay.notes: qHTS Inhibitors of AmpC Beta-Lactamase (assay without detergent); note: nearly all actives have a fitted effect of over 20% in size
- reported.conditions: AmpC nitrocefin hydrolysis, absorbance 480 nm, 0.0001% Triton; series mostly up to 57.1 µM
Hit rate of the full screen: of about 330,000 compounds, about 1,700 (0.52%) were called active. Calls come from the whole dose curve; as a rule, active = well fitted inhibition curve with a large enough effect; inconclusive = small, poorly fitted or top-dose-only effect; inactive = no such curve, though single readings can be large or run the other way. What follows is part of a selection rich in actives, with near analogues and random picks from the rest.
Hi! Could you answer with just one of these? 1 for active, -1 for inactive

See these solved cases before continuing.
CC1CCN(C(=O)/C(=C\c2ccccc2F)NC(=O)c2ccccc2)CC1    -1
Cc1c(Cl)cnc(NC(=O)COC(=O)c2ccc(S(=O)(=O)NCc3ccco3)cc2)c1Cl    -1
Cc1ccc(C(=O)NNc2ncnc3ccccc23)cc1    -1
Cc1ccc(C(=O)NNC(=O)c2cc3cc4ccccc4nc3s2)cc1    1
Cc1ccc(S(=O)(=O)N(Cc2ccccc2)c2ccccn2)cc1[N+](=O)[O-]    -1
CC[C@]12c3[nH]c4ccc(Cl)cc4c3CCN1C(=O)[C@@H](CC(=O)NCCN1CCOCC1)C[C@@H]2C(=O)N1CCN(C(=O)C2CC2)CC1    -1

Please state the recorded outcome for this compound: COc1ccccc1NC(=O)[C@H](COCc1ccccc1)NC(=O)OC(C)(C)C -1

Please state the recorded outcome for this compound: Cn1c(=NC(=O)c2ccc3c(c2)OCCO3)sc2cc(S(C)(=O)=O)ccc21 -1

Please state the recorded outcome for this compound: O=S(=O)(NCc1ccco1)c1cnc(Cl)c(Cl)c1 -1

Please state the recorded outcome for this compound: C/C(=N\Nc1ncc(Cl)cc1Cl)c1ccc(S(=O)(=O)NCc2ccco2)cc1 1

====

- system.under.test: Beta-lactamase (Escherichia coli (strain K12))
- assay.notes: qHTS Inhibitors of AmpC Beta-Lactamase (assay without detergent); note: nearly all actives have a fitted effect of over 20% in size; note: potency is the fitted concentration of half-maximal effect
- reported.conditions: AmpC nitrocefin hydrolysis, absorbance 480 nm, 0.0001% Triton; series mostly up to 57.1 µM
The whole screen tested about 330,000 compounds, of which about 1,700 (0.52%) were called active. For the sample, actives were picked, then their nearest neighbours and some compounds at random.
measured.metric: Potency

Observe how each entry below is paired with its result.
COc1cccc(NC(=S)N(CCc2c(C)[nH]c3ccccc23)Cc2ccco2)c1    inactive
Cc1cc(NC(=O)CS(=O)(=O)c2cn(C)c3ccccc23)no1    10 µM (active)
Cc1cc2ccccn2c1C(=O)c1cccc(F)c1    inactive
COc1ccccc1CNC(=O)COC(=O)CNS(=O)(=O)c1ccc(NC(C)=O)cc1    inactive
COc1ccc(CSc2nnnn2-c2ccc(C(=O)O)cc2)cc1    inactive

Short answer please: Potency, Beta-lactamase (Escherichia coli (strain K12)), entry Cc1ccc(Sc2cc(N3CCOCC3)nc(-c3ccccc3)n2)cc1 inactive

Short answer please: Potency, Beta-lactamase (Escherichia coli (strain K12)), entry CCCCCn1c(SCCC(C)C)nc2c1c(=O)[nH]c(=O)n2C inactive

Short answer please: Potency, Beta-lactamase (Escherichia coli (strain K12)), entry Cc1[nH]c2ccccc2c1CCN(Cc1cccs1)C(=S)NC(C)(C)C inactive

Short answer please: Potency, Beta-lactamase (Escherichia coli (strain K12)), entry COc1ccc(-n2nnnc2SCC(=O)c2ccc(OC)c(OC)c2)cc1 inactive

Short answer please: Potency, Beta-lactamase (Escherichia coli (strain K12)), entry COc1ccc2[nH]c(C)c(CCN(Cc3cccs3)C(=S)Nc3ccccc3OC)c2c1 0.501 µM (active)

Short answer please: Potency, Beta-lactamase (Escherichia coli (strain K12)), entry COc1ccc(CSc2nnnn2-c2ccc(O)cc2)cc1F 22.4 µM (active)
